- tgt: human BLT1 receptor (Homo sapiens)
- Construct: expressed in transfected cells; host or cells: HEK293
- assayProtocol: BLT-1 cAMP Assay
- Assay type: cell-based
- measurementSetup: HEK293 cells recombinantly expressing human BLT1; antagonist activity vs forskolin 4 μM and LTB4 2 nM; cAMP (CisBio kit)
valueType: EC50 (nM)

Known EC50 results, listed for orientation:
Cc1cnc(C[C@@H]2COc3cc(-c4ccccc4NS(=O)(=O)C(F)(F)F)ccc3[C@H]2O)s1 (single isomer, unassigned) :: 4040
Cc1nnc(C[C@H]2COc3cc(-c4ccccc4NS(=O)(=O)C(F)(F)F)ccc3[C@@H]2O)s1 (racemic) :: 32

P. Cc1nnc(C[C@@H]2COc3cc(-c4ccccc4NS(=O)(=O)C(F)(F)F)ccc3[C@H]2O)s1 (single isomer, unassigned)
Q. O=S(=O)(Nc1ccccc1-c1ccc2c(c1)OC[C@H](Cc1ccc(-c3ccccc3)cn1)[C@H]2O)C(F)(F)F (single isomer, unassigned)
R. O=S(=O)(Nc1ccccc1-c1ccc2c(c1)OC[C@@H](Cc1ccccn1)[C@@H]2O)C(F)(F)F
Sort the 3 molecules by EC50; largest first, smallest last. A ranking is expressed here by listing the labels in the requested order.
R, P, Q

* * *

- tgt: human BLT1 receptor (Homo sapiens, UniProt Q15722)
- Construct: expressed in transfected cells; host or cells: HEK293
- Sequence (Q15722 whole entry): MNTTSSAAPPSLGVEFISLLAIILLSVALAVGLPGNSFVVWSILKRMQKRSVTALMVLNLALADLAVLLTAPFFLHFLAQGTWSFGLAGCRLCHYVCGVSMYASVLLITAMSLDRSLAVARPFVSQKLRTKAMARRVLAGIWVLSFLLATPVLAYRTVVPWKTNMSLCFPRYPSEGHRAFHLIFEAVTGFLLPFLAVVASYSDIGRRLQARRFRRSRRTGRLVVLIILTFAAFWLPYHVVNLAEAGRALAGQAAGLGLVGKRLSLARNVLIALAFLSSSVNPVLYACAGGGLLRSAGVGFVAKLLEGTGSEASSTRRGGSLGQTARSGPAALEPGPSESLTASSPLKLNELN
- assayProtocol: BLT-1 cAMP Assay
- Type: cell-based
- measurementSetup: HEK293 cells recombinantly expressing human BLT1; antagonist activity vs forskolin 4 μM and LTB4 2 nM; cAMP (CisBio kit)
valueType: EC50 (nM)

Known EC50 results, listed for orientation:
O=S(=O)(Nc1ccccc1-c1ccc2c(c1)OC[C@H](Cc1ccccn1)[C@H]2O)C(F)(F)F :: 55
O=S(=O)(Nc1ccccc1-c1ccc2c(c1)OC[C@@H](Cc1cncs1)[C@H]2O)C(F)(F)F (racemic) :: 4540
O=S(=O)(Nc1ccccc1-c1ccc2c(c1)OCC(Cc1cccs1)C2O)C(F)(F)F (racemic) :: 53
O=S(=O)(Nc1ncccc1-c1ccc2c(c1)OC[C@@H](Cc1ccccn1)[C@@H]2O)C(F)F (single isomer, unassigned) :: 156
O=S(=O)(CC(F)(F)F)Nc1ncc(F)cc1-c1ccc2c(c1)OC[C@@H](Cc1ccccn1)[C@@H]2O (single isomer, unassigned) :: 63
CC(c1ccccn1)C1COc2cc(-c3cc(F)ccc3NS(=O)(=O)C(F)(F)F)ccc2C1O (stereo not shown) [Example 99] :: 1
O=S(=O)(Nc1ccccc1-c1ccc2c(c1)OC[C@@H](Cc1cc[nH]n1)[C@@H]2O)C(F)(F)F (single isomer, unassigned) :: 125
Cc1ccc(CC2COc3cc(-c4ccccc4NS(=O)(=O)C(F)(F)F)ccc3C2O)nc1 (racemic) :: 105

a. O=S(=O)(Nc1ccccc1-c1ccc2c(c1)OC[C@H](Cc1ccncc1)[C@H]2O)C(F)(F)F (single isomer, unassigned)
b. O=S(=O)(Nc1ccccc1-c1ccc2c(c1)OC[C@@H](Cc1cnc(-c3ccccc3)s1)[C@@H]2O)C(F)(F)F (racemic) [Example 41]
c. CS(=O)(=O)Nc1ccccc1-c1ccc2c(c1)OCC(Cc1ccccn1)C2O (racemic)
Sort the 3 compounds by EC50; largest first, smallest last. A ranking is expressed here by listing the labels in the requested order.
c, b, a

* * *

- tgt: human BLT1 receptor (Homo sapiens, UniProt Q15722)
- Construct: expressed in transfected cells; host or cells: HEK293
- assayProtocol: BLT-1 cAMP Assay
- Format: cell-based
- measurementSetup: HEK293 cells recombinantly expressing human BLT1; antagonist activity vs forskolin 4 μM and LTB4 2 nM; cAMP (CisBio kit)
valueType: EC50 (nM)

Known EC50 results, listed for orientation:
O=S(=O)(Nc1ccccc1-c1ccc2c(c1)OC[C@H](Cc1csc(-c3ccccc3)n1)[C@H]2O)C(F)(F)F (racemic) [Example 24] :: 329
O=S(=O)(Nc1ccccc1-c1ccc2c(c1)OC[C@H](Cc1cnccn1)[C@H]2O)C(F)(F)F (racemic) [Example 27] :: 209
Cc1cccc(C[C@@H]2COc3cc(-c4ccccc4NS(=O)(=O)C(F)(F)F)ccc3[C@H]2O)n1 (single isomer, unassigned) [Example 63] :: 320
CS(=O)(=O)Nc1ccccc1-c1ccc2c(c1)OC[C@@H](Cc1ccccn1)[C@@H]2O (single isomer, unassigned) [Example 73] :: 193
O=S(=O)(Nc1nnccc1-c1ccc2c(c1)OC[C@@H](Cc1ccccn1)[C@@H]2O)C(F)(F)F (single isomer, unassigned) [Example 90] :: 3080

A. O=S(=O)(Nc1ncccc1-c1ccc2c(c1)OC[C@@H](Cc1ccccn1)[C@@H]2O)C(F)(F)F (single isomer, unassigned) [Example 87]
B. CC(c1ccccn1)C1COc2cc(-c3cc(F)ccc3NS(=O)(=O)C(F)(F)F)ccc2C1O (single isomer, unassigned) [Example 100]
C. CCn1ccc(C[C@@H]2COc3cc(-c4ccccc4NS(=O)(=O)C(F)(F)F)ccc3[C@H]2O)n1 (single isomer, unassigned) [Example 47]
List the 3 entries from lowest EC50 to highest EC50 value. A ranking is expressed here by listing the labels in the requested order.
B, A, C

P. CC(c1csc(-c2ccccc2)n1)[C@@H]1COc2cc(-c3ccccc3NS(=O)(=O)C(F)(F)F)ccc2[C@H]1O (single isomer, unassigned) [Example 92]
Q. O=S(=O)(Nc1ccccc1-c1ccc2c(c1)OC[C@@H](Cc1ccc(-c3ccccc3)cn1)[C@@H]2O)C(F)(F)F (single isomer, unassigned) [Example 40]
R. CC(c1ccccn1)C1COc2cc(-c3cc(F)ccc3NS(=O)(=O)C(F)(F)F)ccc2C1O (single isomer, unassigned) [Example 103]
Sort the 3 compounds by EC50; largest first, smallest last. A ranking is expressed here by listing the labels in the requested order.
R, P, Q

* * *

- tgt: human BLT1 receptor (Homo sapiens)
- Construct: expressed in transfected cells; host or cells: HEK293
- assayProtocol: BLT-1 cAMP Assay
- Format: cell-based
- measurementSetup: HEK293 cells recombinantly expressing human BLT1; antagonist activity vs forskolin 4 μM and LTB4 2 nM; cAMP (CisBio kit)
valueType: EC50 (nM)

Known EC50 results, listed for orientation:
O=S(=O)(Nc1ccccc1-c1ccc2c(c1)OC[C@@H](Cc1cncs1)[C@@H]2O)C(F)(F)F (racemic) :: 269
O=S(=O)(Nc1ccccc1-c1ccc2c(c1)OC[C@H](Cc1csc(-c3ccccc3)n1)[C@H]2O)C(F)(F)F (single isomer, unassigned) [Example 65] :: 47

A. O=S(=O)(Nc1ccccc1-c1ccc2c(c1)OC[C@H](Cc1cccs1)[C@H]2O)C(F)(F)F (single isomer, unassigned)
B. O=S(=O)(Nc1ccccc1-c1ccc2c(c1)OCC(Cc1cn[nH]c1)C2O)C(F)(F)F (racemic)
C. O=S(=O)(CC(F)(F)F)Nc1ccccc1-c1ccc2c(c1)OC[C@@H](Cc1ccccn1)[C@@H]2O (single isomer, unassigned) [Example 80]
D. CC(c1ccccn1)C1COc2cc(-c3cc(F)ccc3NS(=O)(=O)C(F)(F)F)ccc2C1O (single isomer, unassigned) [Example 102]
List the 4 entries from lowest EC50 to highest EC50 value. A ranking is expressed here by listing the labels in the requested order.
A, D, C, B
(A: 23 nM, D: 78 nM, C: 481 nM, B: 1650 nM)

* * *

- tgt: human BLT1 receptor (Homo sapiens, UniProt Q15722)
- Construct: expressed in transfected cells; host or cells: HEK293
- assayProtocol: BLT-1 cAMP Assay
- Type: cell-based
- measurementSetup: HEK293 cells recombinantly expressing human BLT1; antagonist activity vs forskolin 4 μM and LTB4 2 nM; cAMP (CisBio kit)
valueType: EC50 (nM)

Cc1nc(C[C@H]2COc3cc(-c4ccccc4NS(=O)(=O)C(F)(F)F)ccc3[C@@H]2O)cs1 (single isomer, unassigned) :: 10

1. O=S(=O)(Nc1ccccc1-c1ccc2c(c1)OC[C@@H](Cc1cccs1)[C@@H]2O)C(F)(F)F (single isomer, unassigned)
2. CCn1ccc(C[C@H]2COc3cc(-c4ccccc4NS(=O)(=O)C(F)(F)F)ccc3[C@@H]2O)n1 (single isomer, unassigned)
3. O=S(=O)(Nc1ccccc1-c1ccc2c(c1)OCC(Cc1ccc(-c3ccccc3)s1)C2O)C(F)(F)F (racemic)
4. O=S(=O)(Nc1ccccc1-c1ccc2c(c1)OC[C@@H](Cc1ccccn1)[C@@H]2O)C(F)F (single isomer, unassigned) [Example 81]
5. Cn1nc(-c2ccccc2)cc1C[C@@H]1COc2cc(-c3ccccc3NS(=O)(=O)C(F)(F)F)ccc2[C@H]1O (single isomer, unassigned)
Sort the 5 compounds by EC50; largest first, smallest last. A ranking is expressed here by listing the labels in the requested order.
1, 5, 2, 4, 3
(1: 1340 nM, 5: 754 nM, 2: 157 nM, 4: 15 nM, 3: 9 nM)

* * *

- tgt: human BLT1 receptor (Homo sapiens)
- Construct: expressed in transfected cells; host or cells: HEK293
- assayProtocol: BLT-1 cAMP Assay
- Type: cell-based
- measurementSetup: HEK293 cells recombinantly expressing human BLT1; antagonist activity vs forskolin 4 μM and LTB4 2 nM; cAMP (CisBio kit)
valueType: EC50 (nM)

Known EC50 results, listed for orientation:
O=S(=O)(Nc1ccccc1-c1ccc2c(c1)OCC(Cc1ccccc1)C2O)C(F)(F)F (racemic) :: 31
O=S(=O)(Nc1ccccc1-c1ccc2c(c1)OC[C@H](Cc1ccc(-c3ccccc3)cc1)[C@H]2O)C(F)(F)F (single isomer, unassigned) :: 5.3
O=S(=O)(CC(F)(F)F)Nc1ncccc1-c1ccc2c(c1)OC[C@@H](Cc1ccccn1)[C@@H]2O (single isomer, unassigned) [Example 78] :: 1870

a. Cc1nc(C[C@@H]2COc3cc(-c4ccccc4NS(=O)(=O)C(F)(F)F)ccc3[C@H]2O)cs1 (racemic) [Example 16]
b. O=S(=O)(Nc1ccccc1-c1ccc2c(c1)OC[C@H](Cc1ccccc1)[C@H]2O)C(F)(F)F (single isomer, unassigned)
Hi, I'm comparing two records. Which one has the lower EC50, a or b ? Bench note: the answer is the label of the chosen record.
b
(b: 15 nM, a: 826 nM)
